- subject.of.test: MAGI3_2, Q5TCQ9
- Sequence (Q5TCQ9 398-503): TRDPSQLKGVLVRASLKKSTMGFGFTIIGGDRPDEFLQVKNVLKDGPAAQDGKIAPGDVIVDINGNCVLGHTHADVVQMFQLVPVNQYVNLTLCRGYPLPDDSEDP
- assay.method.text: holdup assay
- Parameters: key: below the threshold = too weak to quantify, mostly under pKd 3.1 to 4
- conditions.used: plain residues with an end cap or a label only (N-terminal biotin on a linker: ado-ado)
So basically every entry gets a class from its pKd, ranges being range A = under 4, range B = from 4 up to 5, range C = 5 and over

binder	qualitative.label
FLVTEFNVML [DFNB31, Q9P202]	range A
ATKDKKITTV [EXOC4, Q96A65]	range C
QKNKDREYYV [NRXN3, Q9HDB5]	range B
IGHEDLETAV [DGKI, O75912]	range B
IKLETKKTKL [SLC15A2, Q16348]	range A
THHRKIHTRV [ZNF599, Q96NL3]	range C
NISARRFTLC [FAM167B, Q9BTA0]	range B
WAKEKQHTRL [SLC17A1, Q14916]	range B
QLKSGRDSTV [TMEM178A, Q8NBL3]	range B
PEKVSNTTVV [IGSF5, Q9NSI5]	range B
TFSRRPKTRV [CD226, Q15762]	range C
IQISELETNV [SLC1A7, O00341]	range B
